Assignment: determine reported pKd for the given binders.
TARGET_OR_TEST_SYSTEM: T1, monkey NPR1 extracellular domain expressed with a C-terminal myc-myc-hexahistidine (mfNPR1-MMH) (monkey, UniProt P16066 33-473 (human entry))
T1 construct: also called monomeric monkey NPR1
T1 chain: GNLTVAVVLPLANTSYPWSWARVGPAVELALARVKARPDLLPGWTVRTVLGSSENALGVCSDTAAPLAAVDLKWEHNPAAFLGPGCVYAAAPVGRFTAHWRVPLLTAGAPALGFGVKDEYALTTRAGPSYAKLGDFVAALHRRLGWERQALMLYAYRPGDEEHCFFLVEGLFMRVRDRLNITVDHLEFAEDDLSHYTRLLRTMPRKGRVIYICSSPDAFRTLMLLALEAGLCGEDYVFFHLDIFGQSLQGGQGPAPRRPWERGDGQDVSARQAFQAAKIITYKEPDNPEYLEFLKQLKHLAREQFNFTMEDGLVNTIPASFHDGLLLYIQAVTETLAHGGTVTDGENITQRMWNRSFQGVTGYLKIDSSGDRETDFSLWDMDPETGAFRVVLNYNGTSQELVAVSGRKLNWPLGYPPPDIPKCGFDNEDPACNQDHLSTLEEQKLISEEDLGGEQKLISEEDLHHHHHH
EXPERIMENT_SUMMARY: SPR, mAb captured, 37 C
// field semantics: pKd = negative decimal log of concentration (mol/L)

Tell me pKd reported for mAb25508 (antibody, V domains shown) VH: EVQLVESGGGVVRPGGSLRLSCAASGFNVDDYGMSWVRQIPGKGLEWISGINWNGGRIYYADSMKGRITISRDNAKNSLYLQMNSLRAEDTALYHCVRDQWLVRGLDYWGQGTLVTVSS VL: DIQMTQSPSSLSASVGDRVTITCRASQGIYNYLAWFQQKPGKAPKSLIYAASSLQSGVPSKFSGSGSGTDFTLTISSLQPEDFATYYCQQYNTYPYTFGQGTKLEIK
9.46

Tell me pKd reported for mAb25497 (antibody, V domains shown) VH: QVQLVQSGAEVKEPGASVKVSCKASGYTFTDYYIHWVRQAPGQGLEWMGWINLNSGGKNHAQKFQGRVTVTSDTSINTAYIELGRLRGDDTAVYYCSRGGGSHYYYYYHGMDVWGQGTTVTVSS VL: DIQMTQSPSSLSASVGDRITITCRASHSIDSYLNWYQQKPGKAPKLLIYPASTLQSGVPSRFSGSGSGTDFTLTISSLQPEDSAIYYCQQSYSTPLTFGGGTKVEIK
6.86

Tell me pKd reported for mAb25479 (antibody, V domains shown) VH: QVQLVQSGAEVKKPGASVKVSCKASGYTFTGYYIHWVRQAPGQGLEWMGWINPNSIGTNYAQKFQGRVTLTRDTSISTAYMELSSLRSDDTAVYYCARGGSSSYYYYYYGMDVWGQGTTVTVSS VL: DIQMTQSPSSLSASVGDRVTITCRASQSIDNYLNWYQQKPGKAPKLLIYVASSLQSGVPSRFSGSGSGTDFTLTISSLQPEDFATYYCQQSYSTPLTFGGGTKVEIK
6.44

Tell me pKd reported for mAb22035 (antibody, V domains shown) VH: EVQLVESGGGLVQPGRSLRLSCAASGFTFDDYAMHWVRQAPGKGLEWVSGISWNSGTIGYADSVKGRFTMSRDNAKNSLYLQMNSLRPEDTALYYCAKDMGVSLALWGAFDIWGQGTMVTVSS VL: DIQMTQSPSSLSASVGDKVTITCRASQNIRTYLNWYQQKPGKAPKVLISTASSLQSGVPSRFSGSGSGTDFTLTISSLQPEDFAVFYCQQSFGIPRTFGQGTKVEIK
9.15

Tell me pKd reported for mAb22033 (antibody, V domains shown) VH: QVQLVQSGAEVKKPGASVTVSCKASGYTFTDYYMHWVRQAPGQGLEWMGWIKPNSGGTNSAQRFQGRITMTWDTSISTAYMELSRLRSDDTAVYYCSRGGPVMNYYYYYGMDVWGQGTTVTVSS VL: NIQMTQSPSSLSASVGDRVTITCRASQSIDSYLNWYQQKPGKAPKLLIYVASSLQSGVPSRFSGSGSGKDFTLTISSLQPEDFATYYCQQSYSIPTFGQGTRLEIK
7.56

Tell me pKd reported for mAb25491 (antibody, V domains shown) VH: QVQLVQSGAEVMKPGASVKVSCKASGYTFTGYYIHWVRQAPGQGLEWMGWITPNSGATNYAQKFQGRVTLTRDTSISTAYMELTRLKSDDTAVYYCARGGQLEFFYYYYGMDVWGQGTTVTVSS VL: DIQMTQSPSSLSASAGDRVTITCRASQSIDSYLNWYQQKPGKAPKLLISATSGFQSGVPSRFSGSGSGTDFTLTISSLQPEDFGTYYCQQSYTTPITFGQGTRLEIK
7.11
